Source of measurements: patent US20100015058A1

# Test Protocol: Small-animal PET of MDA-MB-435 tumor-bearing mice
# Condition Context: female, athymic nude, mouse, in vivo, iv, total radioactivity; 30 min p.i., BBN tracer control study, FIG. 44B; read-out: MDA-MB-435 tumor uptake
Measure: tissue uptake at 0.5 h (%ID/g)
Reply numerically in %ID/g, unit not repeated.

Q) Which tissue uptake at 0.5 h is reported for this compound? CSCC[C@H](NC(=O)[C@H](CC(C)C)NC(=O)[C@H](Cc1c[nH]cn1)NC(=O)CNC(=O)[C@@H](NC(=O)[C@H](C)NC(=O)[C@H](Cc1c[nH]c2ccccc12)NC(=O)[C@H](CCC(N)=O)NC(=O)CCCCCNC(=O)c1ccc(F)cc1)C(C)C)C(N)=O [^18F-FB-BBN, reference compound]
A) 0.45

---

# Test Protocol: in vivo
# Condition Context: male, athymic nude, mouse, in vivo, iv, 5.5 MBq, total radioactivity, Tumor uptake
Measure: tissue uptake at 20 h (%ID/g)
Reply numerically in %ID/g, unit not repeated.

Q) Which tissue uptake at 20 h is reported for this compound? CSCC[C@H](NC(=O)[C@H](CC(C)C)NC(=O)[C@H](Cc1c[nH]cn1)NC(=O)CNC(=O)[C@@H](NC(=O)[C@H](C)NC(=O)[C@H](Cc1c[nH]c2ccccc12)NC(=O)[C@H](CCC(N)=O)NC(=O)CCCCCNC(=O)CC[C@H](NC(=S)Nc1ccc(C[C@H]2CN(CC(=O)O)CCN(CC(=O)O)CCN2CC(=O)O)cc1)C(=O)NCCCC[C@@H]1NC(=O)[C@@H](Cc2ccc(O)cc2)NC(=O)[C@H](CC(=O)O)NC(=O)CNC(=O)[C@H](CCCNC(=N)N)NC1=O)C(C)C)C(N)=O [^64Cu-NOTA-RGD-BBN, metal not drawn]
A) 2.04

---

# Test Protocol: in vivo
# Condition Context: mouse, in vivo, iv, 5.5 MBq, total radioactivity, Liver uptake
Measure: tissue uptake at 0.5 h
Field: value (include unit after the number)

Q) Which tissue uptake at 0.5 h is reported for this compound? CSCC[C@H](NC(=O)[C@H](CC(C)C)NC(=O)[C@H](Cc1c[nH]cn1)NC(=O)CNC(=O)[C@@H](NC(=O)[C@H](C)NC(=O)[C@H](Cc1c[nH]c2ccccc12)NC(=O)[C@H](CCC(N)=O)NC(=O)CCCCCNC(=S)Nc1ccc(C[C@H]2CN(CC(=O)O)CCN(CC(=O)O)CCN2CC(=O)O)cc1)C(C)C)C(N)=O [^64Cu-NOTA-BBN, metal not drawn, reference compound]
A) 10.4 %ID/g

Q) Which tissue uptake at 0.5 h is reported for this compound? CSCC[C@H](NC(=O)[C@H](CC(C)C)NC(=O)[C@H](Cc1c[nH]cn1)NC(=O)CNC(=O)[C@@H](NC(=O)[C@H](C)NC(=O)[C@H](Cc1c[nH]c2ccccc12)NC(=O)[C@H](CCC(N)=O)NC(=O)CCCCCNC(=O)CC[C@H](NC(=O)CN1CCN(CC(=O)O)CCN(CC(=O)O)CCN(CC(=O)O)CC1)C(=O)NCCCC[C@@H]1NC(=O)[C@@H](Cc2ccc(O)cc2)NC(=O)[C@H](CC(=O)O)NC(=O)CNC(=O)[C@H](CCCNC(=N)N)NC1=O)C(C)C)C(N)=O [^64Cu-DOTA-RGD-BBN, metal not drawn]
A) 3.4 %ID/g

Q) Which tissue uptake at 0.5 h is reported for this compound? CSCC[C@H](NC(=O)[C@H](CC(C)C)NC(=O)[C@H](Cc1c[nH]cn1)NC(=O)CNC(=O)[C@@H](NC(=O)[C@H](C)NC(=O)[C@H](Cc1c[nH]c2ccccc12)NC(=O)[C@H](CCC(N)=O)NC(=O)CCCCCNC(=O)CC[C@H](NC(=S)Nc1ccc(C[C@H]2CN(CC(=O)O)CCN(CC(=O)O)CCN2CC(=O)O)cc1)C(=O)NCCCC[C@@H]1NC(=O)[C@@H](Cc2ccc(O)cc2)NC(=O)[C@H](CC(=O)O)NC(=O)CNC(=O)[C@H](CCCNC(=N)N)NC1=O)C(C)C)C(N)=O [^64Cu-NOTA-RGD-BBN, metal not drawn]
A) 3.46 %ID/g

Q) Which tissue uptake at 0.5 h is reported for this compound? N=C(N)NCCC[C@@H]1NC(=O)[C@H](CCCCNC(=S)Nc2ccc(C[C@H]3CN(CC(=O)O)CCN(CC(=O)O)CCN3CC(=O)O)cc2)NC(=O)[C@@H](Cc2ccc(O)cc2)NC(=O)[C@H](CC(=O)O)NC(=O)CNC1=O [^64Cu-NOTA-RGD, metal not drawn, reference compound]
A) 2.86 %ID/g

---

# Test Protocol: MicroPET blood and normal organ uptake in T47D and MDA-MB-435 tumor-bearing nude mice
# Condition Context: nude, mouse, kidney, iv, total radioactivity, Kidney uptake, average of eight mice, 4 h
Measure: tissue uptake at 4 h (%ID/g)
Reply numerically in %ID/g, unit not repeated.

Q) Which tissue uptake at 4 h is reported for this molecule? CSCC[C@H](NC(=O)[C@H](CC(C)C)NC(=O)[C@H](Cc1c[nH]cn1)NC(=O)CNC(=O)[C@@H](NC(=O)[C@H](C)NC(=O)[C@H](Cc1c[nH]c2ccccc12)NC(=O)[C@H](CCC(N)=O)NC(=O)CCCCCNC(=O)CC[C@H](NC(=S)Nc1ccc(C[C@H]2CN(CC(=O)O)CCN(CC(=O)O)CCN2CC(=O)O)cc1)C(=O)NCCCC[C@@H]1NC(=O)[C@@H](Cc2ccc(O)cc2)NC(=O)[C@H](CC(=O)O)NC(=O)CNC(=O)[C@H](CCCNC(=N)N)NC1=O)C(C)C)C(N)=O [^64Cu-NOTA-RGD-BBN, metal not drawn]
A) 2.95

---

# Test Protocol: in vivo
# Condition Context: male, athymic nude, mouse, in vivo, iv, 3.7 MBq, total radioactivity, PC-3 tumor uptake, static scan after dynamic scan
Measure: tissue uptake at 2 h
Field: value (include unit after the number)

Q) Which tissue uptake at 2 h is reported for this compound? CSCC[C@H](NC(=O)[C@H](CC(C)C)NC(=O)[C@H](Cc1c[nH]cn1)NC(=O)CNC(=O)[C@@H](NC(=O)[C@H](C)NC(=O)[C@H](Cc1c[nH]c2ccccc12)NC(=O)[C@H](CCC(N)=O)NC(=O)CCCCCNC(=O)CC[C@H](NC(=O)COCCOCCOCCNC(=O)c1ccc([18F])cc1)C(=O)NCCCC[C@@H]1NC(=O)[C@@H](Cc2ccc(O)cc2)NC(=O)[C@H](CC(=O)O)NC(=O)CNC(=O)[C@H](CCCNC(=N)N)NC1=O)C(C)C)C(N)=O [^18F-FB-PEG3-RGD-BBN]
A) 2.88 %ID/g

Q) Which tissue uptake at 2 h is reported for this compound? CSCC[C@H](NC(=O)[C@H](CC(C)C)NC(=O)[C@H](Cc1c[nH]cn1)NC(=O)CNC(=O)[C@@H](NC(=O)[C@H](C)NC(=O)[C@H](Cc1c[nH]c2ccccc12)NC(=O)[C@H](CCC(N)=O)NC(=O)CCCCCNC(=O)CC[C@H](NC(=S)Nc1ccc(C[C@H]2CN(CC(=O)O)CCN(CC(=O)O)CCN2CC(=O)O)cc1)C(=O)NCCCC[C@@H]1NC(=O)[C@@H](Cc2ccc(O)cc2)NC(=O)[C@H](CC(=O)O)NC(=O)CNC(=O)[C@H](CCCNC(=N)N)NC1=O)C(C)C)C(N)=O [^68Ga-NOTA-RGD-BBN, metal not drawn]
A) 3.75 %ID/g

---

So I've got a bunch of molecules here, and I need their tissue uptake at 0.5 h values.
# Test Protocol: in vivo
# Condition Context: male, athymic nude, mouse, in vivo, iv, 5.5 MBq, total radioactivity, Tumor uptake
Reply numerically in %ID/g, unit not repeated.

Q) Which tissue uptake at 0.5 h is reported for this molecule? CSCC[C@H](NC(=O)[C@H](CC(C)C)NC(=O)[C@H](Cc1c[nH]cn1)NC(=O)CNC(=O)[C@@H](NC(=O)[C@H](C)NC(=O)[C@H](Cc1c[nH]c2ccccc12)NC(=O)[C@H](CCC(N)=O)NC(=O)CCCCCNC(=O)CC[C@H](NC(=S)Nc1ccc(C[C@H]2CN(CC(=O)O)CCN(CC(=O)O)CCN2CC(=O)O)cc1)C(=O)NCCCC[C@@H]1NC(=O)[C@@H](Cc2ccc(O)cc2)NC(=O)[C@H](CC(=O)O)NC(=O)CNC(=O)[C@H](CCCNC(=N)N)NC1=O)C(C)C)C(N)=O [^64Cu-NOTA-RGD-BBN, metal not drawn]
A) 3.06

Q) Which tissue uptake at 0.5 h is reported for this molecule? CSCC[C@H](NC(=O)[C@H](CC(C)C)NC(=O)[C@H](Cc1c[nH]cn1)NC(=O)CNC(=O)[C@@H](NC(=O)[C@H](C)NC(=O)[C@H](Cc1c[nH]c2ccccc12)NC(=O)[C@H](CCC(N)=O)NC(=O)CCCCCNC(=O)CC[C@H](NC(=O)CN1CCN(CC(=O)O)CCN(CC(=O)O)CCN(CC(=O)O)CC1)C(=O)NCCCC[C@@H]1NC(=O)[C@@H](Cc2ccc(O)cc2)NC(=O)[C@H](CC(=O)O)NC(=O)CNC(=O)[C@H](CCCNC(=N)N)NC1=O)C(C)C)C(N)=O [^64Cu-DOTA-RGD-BBN, metal not drawn]
A) 3.05

Q) Which tissue uptake at 0.5 h is reported for this molecule? CSCC[C@H](NC(=O)[C@H](CC(C)C)NC(=O)[C@H](Cc1c[nH]cn1)NC(=O)CNC(=O)[C@@H](NC(=O)[C@H](C)NC(=O)[C@H](Cc1c[nH]c2ccccc12)NC(=O)[C@H](CCC(N)=O)NC(=O)CCCCCNC(=S)Nc1ccc(C[C@H]2CN(CC(=O)O)CCN(CC(=O)O)CCN2CC(=O)O)cc1)C(C)C)C(N)=O [^64Cu-NOTA-BBN, metal not drawn, reference compound]
A) 2.28

Q) Which tissue uptake at 0.5 h is reported for this molecule? N=C(N)NCCC[C@@H]1NC(=O)[C@H](CCCCNC(=S)Nc2ccc(C[C@H]3CN(CC(=O)O)CCN(CC(=O)O)CCN3CC(=O)O)cc2)NC(=O)[C@@H](Cc2ccc(O)cc2)NC(=O)[C@H](CC(=O)O)NC(=O)CNC1=O [^64Cu-NOTA-RGD, metal not drawn, reference compound]
A) 1.01
